- Test system: Plasmodium falciparum
- test: Screen against P. falciparum Asexual Blood Stage (ABS), at 5uM
- Format: functional, Dd2
- run.conditions: tested at 5 uM
Hit rate of the full screen: of about 65,000 compounds, about 2,100 (3.2%) showed an effect of 50% or more. The median lay at about -52%. The sample holds strong results, similar compounds and a random draw of the others, so the mix is not that of the screen.
Label yes (1) when INHIBITION is strictly below -20%; otherwise label no (0).

compound="Cc1ccc(N2CCCC(NCc3ccc(C)s3)C2)nn1 (stereo unspecified)" group="yes (1)"
compound=CC(C)C(=O)N1CCC2(CN(CC3CCCC3)C2)C1 group="yes (1)"
compound="COc1cc(C(=O)N2CCCC(n3ccnc3)C2)cc2c1OCCO2 (stereo unspecified)" group="no (0)"
compound="Cc1cccc(CN2CCC3(CCN(c4ncccn4)C3)C2=O)c1 (stereo unspecified)" group="yes (1)"
compound=O=C1N(Cc2cccc(F)c2)CCC12CCN(c1ccccn1)CC2 group="no (0)"

Proceed to the following item.
Inquiry: Decide: INHIBITION of COc1ccc(CN(C)CC(O)COCc2ccccc2Cl)c(OC)c1 (stereo unspecified) strictly below -20%?
Reply text: no (0)

* * *

- Tested on: Plasmodium falciparum
- test: Screen against P. falciparum Asexual Blood Stage (ABS), at 5uM
- Type: functional, Dd2
- run.conditions: tested at 5 uM
Among all 65,000 compounds or so, about 2,100 (3.2%) showed an effect of 50% or more. The median lay at about -52%. Shown is part of a subset that was picked to be rich in strong results.
property.name: INHIBITION (%)
Give just the number in %; leave the unit off.

Inquiry: What INHIBITION value was documented for this compound, Cc1ccc(CN2Cc3nnn(C)c3C(COCc3ccccc3)C2)s1 (stereo unspecified) ?
Reply text: -43.4

Inquiry: Subsequent entry: Cc1cc(-c2cnc(N3CCCCCC3)nc2-c2cccnc2C)on1
Reply text: 3.45

* * *

# INHIBITION values compiled below
- System: Plasmodium falciparum
- test: Screen against P. falciparum Asexual Blood Stage (ABS), at 5uM
- Format: functional, Dd2
- run.conditions: tested at 5 uM
Hit rate of the full screen: of about 65,000 compounds, about 2,100 (3.2%) showed an effect of 50% or more. The median lay at about -52%. For the sample, strong results were picked, then their nearest neighbours and some compounds at random.
# include the unit after the value

Below, each entry is followed by its recorded INHIBITION result.
query_smiles=CCCc1nc2c(c(C)c(C)n2Cc2ccncc2)c(N)c1CC value_observed=60.3%
query_smiles=CCCc1nc2c(c(C)c(C)n2Cc2ccccn2)c(N)c1CC value_observed=59.4%

Please find the next compound below.
Inquiry: Field request: INHIBITION | item: CCc1nc2c(c(C)c(C)n2Cc2cccnc2)c(N)c1C
Reply text: 20.4%

* * *

- Tested on: Plasmodium falciparum
- test: Screen against P. falciparum Asexual Blood Stage (ABS), at 5uM
- Format: functional, Dd2
- run.conditions: tested at 5 uM
In all, about 65,000 compounds went through this assay and about 2,100 (3.2%) showed an effect of 50% or more. The median lay at about -52%. This excerpt belongs to a sample that is enriched for strong results.
property.name: INHIBITION (%)
Kindly answer with a numeric value in %, unit omitted.

// below: answered compounds
compound=Cc1ccnn1CCC(=O)N1C[C@@H]2CC[C@H]1CN(CC(=O)N(C)C)C2 value_observed=-46.9
compound=CC(C)c1n[nH]c(C(=O)Nc2cc[nH]n2)c1Br value_observed=-208
compound="CC(NC(=O)NCCCc1n[nH]c(N)c1C#N)c1cccc(Cl)c1 (stereo not drawn)" value_observed=0.414
compound=c1ccc(-c2cnc(CN3CCn4c(nnc4C4CC4)C3)o2)cc1 value_observed=-8.02
compound="COc1ccccc1C1(CNCc2ccc([S+](C)[O-])cc2)CC1 (stereo not drawn)" value_observed=69.5

Inquiry: Look at this compound and give its reported INHIBITION. Cc1nnc2n1CCN(Cc1ncc(-c3ccccc3)o1)C2
Reply text: -95.9

Inquiry: Let us now turn to CCC1(CC)C(=O)NC(=O)N/C1=N/c1cccc(OC)c1
Reply text: -27.2

Inquiry: Likewise for Cc1cc(N2CCN(C(=O)c3cc(Cl)c[nH]3)CC2)nc(C(C)C)n1 ?
Reply text: 13

Inquiry: Follow-up entry: Cc1ccc(NC(=O)CC2NC(N3CCc4ccccc43)=NC2=O)cc1 (stereo not drawn)
Reply text: -135

Origin of values: ChEMBL document CHEMBL4513216
